Tested on: SRPK3
Details: concentration: 1 μM, replicates: in singlicate; n = 1;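 further: KINOMEscan kinase panel screen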
Result Type: %Inh (%)
Give the quantity in %, number only.

Look over these answered cases.
[
  {
    "Compound": "CCc1nc(-c2cccc(C)c2)c(-c2ccnc(NCc3ccccc3)c2)s1",
    "Unit Info": "%",
    "%Inh": 0
  },
  {
    "Compound": "Cc1cccc(-c2nc(-c3ccc(S(C)(=O)=O)cc3)sc2-c2ccncc2)c1",
    "Unit Info": "%",
    "%Inh": 10
  },
  {
    "Compound": "NS(=O)(=O)c1cccc(-c2ccc3nccc(-c4cccc(S(N)(=O)=O)c4)c3c2)c1 [GW867253]",
    "Unit Info": "%",
    "%Inh": 23
  },
  {
    "Compound": "CN(C(=O)c1ccc(-c2cc(-c3c[nH]nc3-c3ccccn3)ccn2)cc1)C1CCOCC1 [GW810083]",
    "Unit Info": "%",
    "%Inh": 11
  }
]

Problem: Form: Entry = Cn1ccc2ncnc(Oc3ccc(NC(=O)Nc4ccncc4)c(Cl)c3)c21 | System = SRPK3 | %Inh = ____
Solution: 0

###

Test system: BRAF
Conditions: concentration: 1 μM, replicates: in singlicate; n = 1
Could you mark each record yes (1) if its %Inh falls strictly under 6%, and no (0) if it equals or exceeds it?

As a guide, the following entries are already answered.
[
  {
    "Compound": "COc1cc2c(cc1OCCN1CCN(C)CC1)ncc1c3ccc(C#N)cc3[nH]c21",
    "Classification": "yes (1)"
  },
  {
    "Compound": "CCc1nc(-c2cccc(C)c2)c(-c2ccnc(NCc3ccccc3)c2)s1",
    "Classification": "no (0)"
  },
  {
    "Compound": "Cl.Nc1ncnc2occ(-c3ccc(NC(=O)Nc4cc(C(F)(F)F)ccc4F)cc3)c12",
    "Classification": "no (0)"
  },
  {
    "Compound": "Fc1ccc(-c2nn3c(OCC(F)(F)F)cccc3c2-c2ccncc2)cc1",
    "Classification": "no (0)"
  },
  {
    "Compound": "Cc1c(Cn2c(C)nn3c(=O)cc(N4CCOC(C)C4)nc23)cccc1C(F)(F)F (stereo not drawn)",
    "Classification": "yes (1)"
  }
]

Problem: # strict comparison: is reported %Inh < 6%? input = CN(C1=C(c2ccccc2)C(=O)NC1=O)c1ccccc1
Solution: yes (1)

Problem: Lab note: %Inh threshold 6%. Does this compound come in strictly under it? CCc1ccnc(/C=C/c2n[nH]c3cc(Sc4ccccc4C(=O)NC)ccc23)c1
Solution: yes (1)

Problem: Criterion: %Inh strictly below 6%. Is it met by O=C(NCCCN1CCOCC1)c1cccc(Nc2nccc(Nc3ccc(Oc4ccccc4)cc3)n2)c1 ?
Solution: yes (1)

Problem: Hello, I'm reviewing records and need to know if %Inh of Cc1cccc(-c2nc(-c3ccc(S(C)(=O)=O)cc3)sc2-c2ccncc2)c1 is below 6%. Could you check?
Solution: no (0)

Problem: Confirm or reject: %Inh of CCn1cnc2c(N)ncnc21 lies strictly below 6%
Solution: yes (1)

Problem: Please indicate whether the reported %Inh of c1ccc(-c2n[nH]cc2-c2ccnc3ccccc23)nc1 is strictly below 6%.
Solution: yes (1)

Problem: Hello, I'm reviewing records and need to know if %Inh of O=c1cc(N2CCOCC2)nc2n(Cc3cccc(Cl)c3Cl)c(C3CC3)nn12 is below 6%. Could you check?
Solution: yes (1)

Problem: Bench note: check whether COc1cc(Nc2nccc(N3CCC(NC(=O)c4cccc(NC(C)=O)c4)C3)n2)cc(OC)c1OC (stereo not drawn) shows %Inh below 6%
Solution: yes (1)

Problem: Criterion: %Inh strictly below 6%. Is it met by COc1cc2c(cc1OC[C@@H](O)CO)ncc1c3ccc(C#N)cc3[nH]c21 ?
Solution: yes (1)

Problem: Determine whether this compound shows %Inh lower than 6% (ties excluded): NS(=O)(=O)CCc1cccc(Nc2nccc(-c3c(-c4cccc(NC(=O)c5c(F)cccc5F)c4)nn4ccccc34)n2)c1
Solution: no (0)

Problem: Threshold test, %Inh < 6%: Cc1nnc(-c2ccc3ncc(-c4ccc(S(C)=O)cc4)n3c2)o1 (stereo not drawn)
Solution: no (0)

Problem: Identify whether the compound Cc1cn2c(=O)cc(N3CCOCC3)nc2n1Cc1cccc(Cl)c1Cl records %Inh below 6%.
Solution: no (0)

###

Reported %Inh values for a set of compounds
Test system: PAK4
Conditions: concentration: 1 μM, replicates: in singlicate; n = 1
Unit % implied. Number only.

Problem: Can you look up the measured %Inh of CCn1cnc2c(N)ncnc21 for me?
Solution: 6

Problem: I am curious: what %Inh value has been reported for O=C(Nc1n[nH]c2cc(-c3cccc(F)c3)ccc12)C1CC1 ?
Solution: 0

Problem: Suppose we examine the compound O=C(NCCNc1ccnc(Nc2ccc(F)cc2)n1)c1cc2ccccc2s1 ; what %Inh value has been reported?
Solution: 0

Problem: # lookup: %Inh of CC(=O)Nc1ccc(COc2ccc(Nc3ccnc4cc(-c5ccccn5)ccc34)cc2)cc1.Cl
Solution: 0

Problem: Consider the compound shown here: Cl.Oc1cccc(Nc2ccnc3cc(-c4ccncc4)ccc23)c1 What is its recorded %Inh?
Solution: 0

Problem: Which %Inh value belongs to O=C(c1ccc(-c2cc(-c3c[nH]nc3-c3ccccn3)ccn2)cc1)N1CCOCC1 ?
Solution: 6

Problem: Can you look up the measured %Inh of O=c1cc(N2CCOCC2)nc2n(Cc3cccc(C(F)(F)F)c3)ccn12 for me?
Solution: 0

Problem: Entry under review: COc1ccc(Nc2nccc(N3CCC(NC(=O)Nc4cccc(C(C)=O)c4)C3)n2)cc1 (stereo not drawn) . Reported %Inh?
Solution: 0

Problem: # get_value(readout='%Inh', item= Cc1cccc(-c2nc(Nc3ccc4ncsc4c3)c3ccccc3n2)n1 )
Solution: 8

###

Test system: DMPK
Conditions: concentration: 1 μM, replicates: in singlicate; n = 1
Measured %Inh by item
Give the quantity in %, number only.

The following compounds have reported results that may help.
[
  {
    "Compound": "O=C(NCCCN1CCOCC1)c1cccc(Nc2nccc(Nc3ccc(Oc4ccccc4)cc3)n2)c1 [GW663929]",
    "Experimental System": "DMPK",
    "Unit Info": "%",
    "Reported Result": 0
  },
  {
    "Compound": "Fc1ccc(-c2ncn(CCCN3CCOCC3)c2-c2ccccn2)cc1 [SB-211742]",
    "Experimental System": "DMPK",
    "Unit Info": "%",
    "Reported Result": 17
  },
  {
    "Compound": "O=C1NC(=O)C(N2CCc3ccccc32)=C1c1cccc(Cl)c1 [SB-408010]",
    "Experimental System": "DMPK",
    "Unit Info": "%",
    "Reported Result": 7
  },
  {
    "Compound": "Cc1ccc(NC(=O)c2ccnc(N3CCN(C)CC3)c2)cc1-c1ccc(C(=O)NCC2CC2)cc1 [GW775604]",
    "Experimental System": "DMPK",
    "Unit Info": "%",
    "Reported Result": 7
  },
  {
    "Compound": "O=C(NOCC1CC1)c1ccc(F)c(F)c1Nc1ccc(I)cc1Cl",
    "Experimental System": "DMPK",
    "Unit Info": "%",
    "Reported Result": 0
  }
]

Problem: Entry COc1cc2c(cc1OCCN1CCN(C)CC1)ncc1c3ccc(C#N)cc3[nH]c21 : reported %Inh = ?
Solution: 0

Problem: What %Inh value was documented for this compound, Cc1nnc(-c2ccc3ncc(-c4ccc(S(C)=O)cc4)n3c2)o1 (stereo not shown) ?
Solution: 1

Problem: # %Inh lookup, item Nc1nc(-c2ccc3c(N)n[nH]c3c2)cc(N2CCCC2)n1 [GSK2227430]
Solution: 0

Problem: %Inh lookup needed for Cn1ccc2ncnc(Oc3ccc(NC(=O)Nc4ccncc4)c(Cl)c3)c21 , thanks.
Solution: 0

Problem: Which %Inh value is on record for Cl.Oc1cccc(Nc2ccnc3cc(-c4ccncc4)ccc23)c1 [GW494601] ?
Solution: 0

Problem: Quick one: %Inh for CC(C)(C)n1cnc2c(N)ncnc21 [SKF-97359] ?
Solution: 9

Problem: For the compound Cc1nnc(-c2ccc3occ(-c4ccc(C(C)O)cc4)c3c2)o1 (stereo not shown) , what %Inh is on record?
Solution: 7

Problem: Would you kindly share the measured %Inh for O=c1cc(N2CCOCC2)nc2n(Cc3cccc(C(F)(F)F)c3)ccn12 [GSK2297543] ?
Solution: 9

Problem: Suppose we examine the compound c1ccc(-c2n[nH]cc2-c2ccnc3ccccc23)nc1 [GW271431] ; what %Inh value has been reported?
Solution: 2

###

Test system: CSNK1A1L
Settings: concentration: 1 μM, replicates: in singlicate; n = 1
Result Type: %Inh
Kindly report the value followed by its unit.

Problem: Reported %Inh, molecule Cl.Nc1ncnc2occ(-c3ccc(NC(=O)Nc4cc(C(F)(F)F)ccc4F)cc3)c12 [SB-707548] : ____
Solution: 11%
